# measured_target: HMGCR (TM1-8)-GFP (Cricetulus griseus)
# Sequence (P00347 1-346): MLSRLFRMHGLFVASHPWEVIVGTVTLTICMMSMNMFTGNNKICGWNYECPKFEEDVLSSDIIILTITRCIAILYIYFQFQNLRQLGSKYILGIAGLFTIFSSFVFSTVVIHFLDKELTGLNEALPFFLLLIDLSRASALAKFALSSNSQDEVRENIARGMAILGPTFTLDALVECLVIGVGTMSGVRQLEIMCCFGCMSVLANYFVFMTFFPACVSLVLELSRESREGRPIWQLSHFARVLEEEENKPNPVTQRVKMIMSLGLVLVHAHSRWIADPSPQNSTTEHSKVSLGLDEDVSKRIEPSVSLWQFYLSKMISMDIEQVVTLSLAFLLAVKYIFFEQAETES
# experiment: HMGCR (TM1-8)-GFP fluorescent assay (high-content imaging) in CHG cells
# stated_conditions: 16 h, read-out: HMGCR (TM1-8)-GFP fluorescent intensity, mean
assay_readout: remaining activity at 10 µM (%)
Write down the numeric answer in % and omit the unit.

Consider the reported remaining activity at 10 µM for these compounds:
compound="CC(=O)N[C@@H]1C=C2C(C)(C)[C@@H](O)CC[C@]2(C)C2CC[C@@]3(C)C(CC[C@@H]3[C@H](C)CCCC(C)C)C21 (stereo partly shown)" value_observed=97.5
compound="CC(C)CCC[C@@H](C)[C@H]1CCC2C3C(=NO)C=C4C(C)(C)[C@@H](O)CC[C@]4(C)C3CC[C@@]21C (stereo partly shown)" value_observed=62
compound="CCC1(CCOC)C2=CCC3C(CCC4(C)C(C(C)CCCC(C)C)CCC34)C2(C)CCC1O (stereo not shown)" value_observed=93.3

Now consider a different compound.
Ask: Entry CC(C)CCC[C@@H](C)[C@H]1CCC2C3C(CC[C@@]21C)[C@@]1(C)CC[C@H](O)C(C)(C)C1=C[C@H]3N (stereo partly shown) : reported remaining activity at 10 µM = ?
Result: 99.4

---

# measured_target: HMGCR (TM1-8)-GFP (Cricetulus griseus, UniProt P00347)
# experiment: HMGCR (TM1-8)-GFP fluorescent assay (high-content imaging) in CHG cells
# stated_conditions: read-out: Mean (HMGCR (TM1-8)-GFP signal relative to 0 μM = 100)
assay_readout: remaining activity at 1.25 µM (%)
Write down the numeric answer in % and omit the unit.

molecule="CCC(O)(CC)CCCCC[C@@H](C)C1CCC2C3C(CC[C@@]21C)[C@@]1(C)CC[C@H](O)C(C)(C)C1=C[C@@H]3O (stereo partly shown)" measured_target="HMGCR (TM1-8)-GFP (Cricetulus griseus, UniProt P00347)" reading_unit=% value_observed=38.3

Ask: Entry COCCC[C@@H](C)C1CCC2C3C(CC[C@@]21C)[C@@]1(C)CC[C@H](O)C(C)(C)C1=C[C@@H]3O (stereo partly shown) : reported remaining activity at 1.25 µM = ?
Result: 63.8

Ask: Entry CC(O)CCCCC[C@@H](C)C1CCC2C3C(CC[C@@]21C)[C@@]1(C)CC[C@H](O)C(C)(C)C1=C[C@@H]3O (stereo partly shown) : reported remaining activity at 1.25 µM = ?
Result: 38.2

Ask: Entry CCC(O)CCCCC[C@@H](C)C1CCC2C3C(CC[C@@]21C)[C@@]1(C)CC[C@H](O)C(C)(C)C1=C[C@@H]3O (stereo partly shown) : reported remaining activity at 1.25 µM = ?
Result: 50.2

---

# measured_target: HMGCR (TM1-8)-GFP (Cricetulus griseus)
# Sequence (P00347 1-346): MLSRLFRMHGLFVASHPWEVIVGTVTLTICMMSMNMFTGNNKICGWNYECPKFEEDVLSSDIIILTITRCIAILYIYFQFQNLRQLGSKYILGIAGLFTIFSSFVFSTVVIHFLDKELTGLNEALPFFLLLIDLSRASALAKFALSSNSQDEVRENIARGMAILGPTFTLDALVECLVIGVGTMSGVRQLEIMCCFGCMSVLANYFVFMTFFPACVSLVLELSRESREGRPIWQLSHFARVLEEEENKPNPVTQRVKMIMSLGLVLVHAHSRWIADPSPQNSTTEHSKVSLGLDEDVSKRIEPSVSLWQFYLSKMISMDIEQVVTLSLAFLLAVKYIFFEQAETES
# experiment: HMGCR (TM1-8)-GFP fluorescent assay (high-content imaging) in CHG cells
# stated_conditions: read-out: Mean (HMGCR (TM1-8)-GFP signal relative to 0 μM = 100)
Label True when remaining activity at 0.156 µM is strictly below 90%; otherwise label False.

Before answering, review these 3 worked examples.
compound="CCC(O)CCCCC[C@@H](C)C1CCC2C3C(CC[C@@]21C)[C@@]1(C)CC[C@H](O)C(C)(C)C1=C[C@@H]3O (stereo partly drawn)" label_value=True
compound="C[C@H](CCCCC(=O)O)C1CCC2C3C(CC[C@@]21C)[C@@]1(C)CC[C@H](O)C(C)(C)C1=C[C@@H]3O (stereo partly drawn)" label_value=False
compound="C=CCC(O)(CC=C)CC[C@@H](C)C1CCC2C3C(CC[C@@]21C)[C@@]1(C)CC[C@H](O)C(C)(C)C1=C[C@@H]3O (stereo partly drawn)" label_value=False

Ask: Criterion: remaining activity at 0.156 µM strictly below 90%. Is it met by CCC(O)(CC)CCC[C@@H](C)C1CCC2C3C(CC[C@@]21C)[C@@]1(C)CC[C@H](O)C(C)(C)C1=C[C@@H]3O (stereo partly drawn) ?
Result: True

---

# measured_target: HMGCR (TM1-8)-GFP (Cricetulus griseus)
# Sequence (P00347 1-346): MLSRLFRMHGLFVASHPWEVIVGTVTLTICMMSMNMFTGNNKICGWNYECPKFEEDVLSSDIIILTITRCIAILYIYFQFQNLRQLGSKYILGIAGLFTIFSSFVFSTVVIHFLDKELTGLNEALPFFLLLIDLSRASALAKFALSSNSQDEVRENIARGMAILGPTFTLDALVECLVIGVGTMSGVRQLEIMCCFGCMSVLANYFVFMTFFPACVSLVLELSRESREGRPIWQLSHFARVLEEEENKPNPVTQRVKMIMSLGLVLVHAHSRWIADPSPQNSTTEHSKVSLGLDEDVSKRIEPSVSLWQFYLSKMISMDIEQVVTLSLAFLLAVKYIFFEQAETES
# experiment: HMGCR (TM1-8)-GFP fluorescent assay (high-content imaging) in CHG cells
# stated_conditions: 16 h, read-out: HMGCR (TM1-8)-GFP fluorescent intensity, mean
Below, each entry is listed with its recorded remaining activity at 0.1 µM.
Write down the numeric answer in % and omit the unit.

Consider the reported remaining activity at 0.1 µM for these compounds:
compound=CC(C)CCC[C@@H](C)[C@H]1CC[C@H]2[C@@H]3CC=C4C(C)(C)[C@@H](O)CC[C@]4(C)[C@H]3CC[C@]12C value_observed=104
compound="C=CCC1(CC=C)C2=CCC3C(CC[C@@]4(C)C3CC[C@@H]4[C@H](C)CCCC(C)C)[C@@]2(C)CC[C@@H]1O (stereo partly shown)" value_observed=95.3
compound="CC(=O)N[C@@H]1C=C2C(C)(C)[C@@H](O)CC[C@]2(C)C2CC[C@@]3(C)C(CC[C@@H]3[C@H](C)CCCC(C)C)C21 (stereo partly shown)" value_observed=97.3

Now consider a different compound.
Ask: Form field: remaining activity at 0.1 µM recorded for COCCC1(CCOC)C2=CCC3C(CC[C@@]4(C)C3CC[C@@H]4[C@H](C)CCCC(C)C)[C@@]2(C)CC[C@@H]1O (stereo partly shown) with HMGCR (TM1-8)-GFP (Cricetulus griseus) (enter value)
Result: 90.2

---

# measured_target: HMGCR (TM1-8)-GFP (Cricetulus griseus)
# experiment: HMGCR (TM1-8)-GFP fluorescent assay (high-content imaging) in CHG cells
# stated_conditions: 16 h, read-out: HMGCR (TM1-8)-GFP fluorescent intensity, mean
assay_readout: remaining activity at 20 µM (%)
Write down the numeric answer in % and omit the unit.

compound="CC(=O)N[C@@H]1C=C2C(C)(C)[C@@H](O)CC[C@]2(C)C2CC[C@@]3(C)C(CC[C@@H]3[C@H](C)CCCC(C)C)C21 (some centres unmarked) [Compound 22]" assay_readout="remaining activity at 20 µM" value_observed=97.9

Ask: Entry CC(C)CCC[C@@H](C)[C@H]1CC[C@H]2[C@@H]3CC=C4C[C@@H](O)CC[C@]4(C)[C@H]3CC[C@]12C [Cholesterol] : reported remaining activity at 20 µM = ?
Result: 58.9

Ask: Entry CC(C)CCC[C@@H](C)[C@H]1CCC2C3C(CC[C@@]21C)[C@@]1(C)CC[C@H](O)C(C)(C)C1=C[C@H]3N=[N+]=[N-] (some centres unmarked) [Compound 18] : reported remaining activity at 20 µM = ?
Result: 98.8
